Experiment: MM1S cell viability effects, profiling panel, calcein-AM fluorescence, 48 h, basal (AID 1165);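 also: viability of MM1S multiple myeloma cells under basal unstimulated conditions; test concentration not given here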
Conditions: higher = more signal
Returns one of met or not met; met when z-score is >= -0.5.

compound | group
CC(C)(C)OC(=O)CC[C@@]1(C(=O)O)N=C(c2ccc(OCCCO)cc2)O[C@@H]1c1ccccc1N=[N+]=[N-] | met
[N-]=[N+]=Nc1ccccc1[C@@H]1OC(c2ccc(OCCCO)cc2)=N[C@]1(CCS(=O)(=O)c1ccccc1)C(=O)N1CCOCC1 | met
C=CCNC(=O)[C@@H]1[C@H]2C(=O)O[C@H](c3ccccc3)[C@H](c3ccccc3)N2[C@H](c2ccc(O)cc2)[C@@]12C(=O)N(C(=O)OCCOC)c1ccccc12 | not met
C=C[C@H](C)[C@@H](O)c1ccc(O)c2ccccc12 | not met
COCCOC(=O)N1C(=O)[C@@]2(c3cc(C#CC4=CCCCC4)ccc31)[C@H](C(=O)NC[C@H](O)c1ccccc1)[C@H]1C(=O)O[C@H](c3ccccc3)[C@H](c3ccccc3)N1[C@@H]2c1ccc(O)cc1 | not met
CC(C)N1CC=CC23O[C@@H]4C=CCOC(=O)[C@@H]4[C@H]2C(=O)N(CCO)[C@@H]3C1=O (stereo partly drawn) | met
CCCCCN1CC=CC23O[C@@H]4/C=C\CCCOC(=O)C4[C@H]2C(=O)N(CCCCCCO)[C@@H]3C1=O (stereo partly drawn) | met
COC(=O)c1c(CC[C@@H](CO)NC(=O)N[C@@H](Cc2ccccc2)Cn2cc(C3(O)CCCCC3)nn2)oc(C(C)=O)c1C(=O)OC | met
C=CCOC(=O)[C@H]1[C@@H]2C(=O)O[C@@H](c3ccccc3)[C@@H](c3ccccc3)N2[C@@H](c2ccc(OCCOC(=O)[C@@H]3C[C@@H]4C(=O)N5CCC[C@H]5C(=O)N4[C@@H]3c3ccc(O)cc3)cc2)[C@]12C(=O)Nc1ccccc12 | met
COC(=O)c1ccc(C(O)C2C=CC3C(=O)N(C)C(=O)C3N2NC(=O)OC(C)(C)C)o1 (stereo not drawn) | not met
COc1ccc([Si](C)(C)[C@H]2[C@H](CCn3cc([C@H](O)c4ccccc4)nn3)O[C@@]3(C(=O)N(Cc4cccc(N5CCC5=O)c4)c4ccccc43)[C@@H]2C)cc1 | met
COc1ccc(C#Cc2ccc3c(c2)[C@]2(C(=O)N3)[C@H](c3ccc(O)cc3)N3[C@H](c4ccccc4)[C@H](c4ccccc4)OC(=O)[C@H]3[C@@H]2C(=O)N2CCCCCCC2)cc1 | met
CCC(CC)C(O)C1C=CC2C(=O)N(c3ccccc3)C(=O)C2N1Nc1ccc(C#N)cc1 (stereo not drawn) | met
Cc1ccccc1C(O)C1C=CC2C(=O)N(C)C(=O)C2N1N1CCCCC1 (stereo not drawn) | not met
CC(=O)C1=CCC(c2ccccc2)N(S(=O)(=O)c2ccc(C)cc2)C1 (stereo not drawn) | met
CCOC(=O)C[C@H]1[C@H](OC(=O)Cc2ccc3c(c2)OCO3)[C@@H](NC(=O)c2ccc(-c3ccccc3)cc2)c2cc(OCCCO)ccc2N1C(=O)c1ccccc1 | met
CCCC[C@@H]1C[C@H]1[C@@H](NC(=O)c1ccc(-c2ccccc2)cc1)c1ccc(-c2ccccc2)cc1 | not met
COCCOC(=O)N1C(=O)[C@@]2(c3cc(C#CC4=CCCCC4)ccc31)[C@H](C(=O)N1CCc3cc(OC)c(OC)cc3C1)[C@H]1C(=O)O[C@H](c3ccccc3)[C@H](c3ccccc3)N1[C@@H]2c1ccccc1OCCO | not met
COCCOC(=O)N1C(=O)[C@@]2(c3cc(C#CCNC(N)=O)ccc31)[C@H](c1ccc(O)cc1)N1[C@H](c3ccccc3)[C@H](c3ccccc3)OC(=O)[C@H]1[C@@H]2C(=O)Nc1nc2ccccc2s1 | met
O=C1OCCC=C[C@H]2OC34C=CCN(Cc5ccccc5)C(=O)[C@H]3N(CCCCCCO)C(=O)[C@@H]4C12 (stereo partly drawn) | met
C[N+](C)(C)CCCCCCNC(=O)[C@H]1C[C@H]2C(=O)N3CCC[C@H]3C(=O)N2[C@H]1c1ccc(O)cc1 | met
COC(=O)[C@@]1(Cc2ccc(OC)cc2)[C@H]2c3cc(C(=O)N4CCCC4)n(Cc4cc(F)cc5c4OCOC5)c3C[C@H]2CN1C(=O)c1ccccc1 | not met
CN1C=C(C(=O)OCCS(C)(=O)=O)C(C(=O)OCCS(C)(=O)=O)=CC(CCCO)=CC1C1CC1 (stereo not drawn) | met
CCCCCN1CC=CC23O[C@@H]4C=CCOC(=O)[C@@H]4[C@H]2C(=O)N(CCCO)[C@@H]3C1=O (stereo partly drawn) | met
C=CC[C@]1(C(=O)N2CCOCC2)N=C(c2ccc(OCCCO)cc2)O[C@H]1c1ccccc1 | not met
COC(=O)C1=CC(CCCO)=CC(C2CC2)N(Cc2sc3ccccc3c2Cl)C=C1C(=O)OC (stereo not drawn) | not met
